study-target: Luciferin 4-monooxygenase (Photinus pyralis) (UniProt P08659)
Sequence (P08659 whole entry, looked up): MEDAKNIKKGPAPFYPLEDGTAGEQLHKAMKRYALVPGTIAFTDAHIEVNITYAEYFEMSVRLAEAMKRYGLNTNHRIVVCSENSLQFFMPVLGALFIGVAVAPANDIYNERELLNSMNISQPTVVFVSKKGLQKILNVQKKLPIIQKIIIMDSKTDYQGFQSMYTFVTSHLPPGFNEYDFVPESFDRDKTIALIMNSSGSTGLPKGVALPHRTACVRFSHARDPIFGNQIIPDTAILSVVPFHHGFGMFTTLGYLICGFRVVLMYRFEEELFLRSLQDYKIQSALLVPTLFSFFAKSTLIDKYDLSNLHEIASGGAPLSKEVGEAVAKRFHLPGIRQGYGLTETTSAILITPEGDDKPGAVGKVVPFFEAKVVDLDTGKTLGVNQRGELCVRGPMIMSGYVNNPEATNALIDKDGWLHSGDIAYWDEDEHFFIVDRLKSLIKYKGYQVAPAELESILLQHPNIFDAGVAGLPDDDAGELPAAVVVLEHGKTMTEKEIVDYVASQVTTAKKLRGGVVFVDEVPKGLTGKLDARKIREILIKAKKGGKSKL
assay-summary: inhibition of purified Photinus pyralis luciferase – biochemical, luminescence, purified enzyme, 2006 set, primary screen (AID 1141);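 note: cell-free assay with purified firefly luciferase at 100 ng per well in PBS; test concentration not given here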
conditions: purified firefly luciferase, SteadyGlo luminescence, 30 min; higher = more signal, called active from +8 up or from −8 down
Activity calls are given as the source filed them.
measured-parameter: z-score

Lookup: Can you share its z-score? I mean this compound: [N-]=[N+]=NCc1ccccc1[C@H]1OC(c2ccc(OCCCO)cc2)=N[C@@]1(Cc1ccccc1)C(=O)O
Found: -0.0016 (inactive)

Lookup: Which z-score value belongs to Cc1ccc(S[C@]2(C(=O)NCCCN(C)C)CC(=O)N(Cc3ccccc3)[C@@H]2c2ccc(CO)cc2)cc1 ?
Found: -1.1 (inactive)

Lookup: Can you look up the measured z-score of CN(C)CCCC[C@@H]1NC(=O)[C@@H]2C[C@H](C(=O)NCCCCCN)[C@H](c3ccc(O)cc3)N2C1=O for me?
Found: -0.806 (inactive)

Lookup: Which z-score is listed for CC(C)(C)OC(=O)CC[C@]1(C(=O)NCC(O)CO)N=C(c2ccc(OCCCO)cc2)O[C@H]1c1ccccc1CN=[N+]=[N-] (some centres undefined) ?
Found: -0.718 (inactive)
